Target: T1, RBFOX1 RRM RbFoxmut (Fox-RRM*) (Homo sapiens, UniProt Q9NWB1 109-208, R118D;E147R;N151S;E152T)
T1 sequence: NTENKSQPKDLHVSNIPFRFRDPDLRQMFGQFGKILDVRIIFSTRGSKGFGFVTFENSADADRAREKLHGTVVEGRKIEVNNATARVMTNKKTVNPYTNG
Assay: EMSA; HiTS-Eq, 1 nM pool, 10 min; buffer printed only for the single-RNA assays: 10 mM Tris pH 7.5, 150 mM NaCl, 3.4 mM EDTA, 0.001% NP-40, 30 C
Conditions: tags: His6 N-terminal (pET28a); label: 5' 32P
The full ranking holds about 16,000 sequences; the median of “ka relative to ugcaugu” is about 0.096, and the highest 2% start at about 0.35. The full list was thinned out, with the highest values kept by preference.
measurement_label: binding signal

binder	binding signal
AACCUGA (DNA:RNA) RNA: GGGAGACCGGAAUUCAGAUUGUCCAACCUGAUUAAAUCCCGUCGUAGCCACCA DNA 1: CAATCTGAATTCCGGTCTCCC DNA 2: TGGTGGCTACGACGGGATT	0.0413 KA relative to UGCAUGU

Now consider the entry below.
// query binding signal value for entry UGACUUC (DNA:RNA) RNA: GGGAGACCGGAAUUCAGAUUGUCCUGACUUCUUAAAUCCCGUCGUAGCCACCA DNA 1: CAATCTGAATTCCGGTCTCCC DNA 2: TGGTGGCTACGACGGGATT
0.0822 KA relative to UGCAUGU
